Numbers sourced from patent US11530210B2.

Molecular target: human GluN1/GluN2B NMDA receptors (Homo sapiens, UniProt Q13224)
Sequence (Q13224 27-1484, other chains not shown): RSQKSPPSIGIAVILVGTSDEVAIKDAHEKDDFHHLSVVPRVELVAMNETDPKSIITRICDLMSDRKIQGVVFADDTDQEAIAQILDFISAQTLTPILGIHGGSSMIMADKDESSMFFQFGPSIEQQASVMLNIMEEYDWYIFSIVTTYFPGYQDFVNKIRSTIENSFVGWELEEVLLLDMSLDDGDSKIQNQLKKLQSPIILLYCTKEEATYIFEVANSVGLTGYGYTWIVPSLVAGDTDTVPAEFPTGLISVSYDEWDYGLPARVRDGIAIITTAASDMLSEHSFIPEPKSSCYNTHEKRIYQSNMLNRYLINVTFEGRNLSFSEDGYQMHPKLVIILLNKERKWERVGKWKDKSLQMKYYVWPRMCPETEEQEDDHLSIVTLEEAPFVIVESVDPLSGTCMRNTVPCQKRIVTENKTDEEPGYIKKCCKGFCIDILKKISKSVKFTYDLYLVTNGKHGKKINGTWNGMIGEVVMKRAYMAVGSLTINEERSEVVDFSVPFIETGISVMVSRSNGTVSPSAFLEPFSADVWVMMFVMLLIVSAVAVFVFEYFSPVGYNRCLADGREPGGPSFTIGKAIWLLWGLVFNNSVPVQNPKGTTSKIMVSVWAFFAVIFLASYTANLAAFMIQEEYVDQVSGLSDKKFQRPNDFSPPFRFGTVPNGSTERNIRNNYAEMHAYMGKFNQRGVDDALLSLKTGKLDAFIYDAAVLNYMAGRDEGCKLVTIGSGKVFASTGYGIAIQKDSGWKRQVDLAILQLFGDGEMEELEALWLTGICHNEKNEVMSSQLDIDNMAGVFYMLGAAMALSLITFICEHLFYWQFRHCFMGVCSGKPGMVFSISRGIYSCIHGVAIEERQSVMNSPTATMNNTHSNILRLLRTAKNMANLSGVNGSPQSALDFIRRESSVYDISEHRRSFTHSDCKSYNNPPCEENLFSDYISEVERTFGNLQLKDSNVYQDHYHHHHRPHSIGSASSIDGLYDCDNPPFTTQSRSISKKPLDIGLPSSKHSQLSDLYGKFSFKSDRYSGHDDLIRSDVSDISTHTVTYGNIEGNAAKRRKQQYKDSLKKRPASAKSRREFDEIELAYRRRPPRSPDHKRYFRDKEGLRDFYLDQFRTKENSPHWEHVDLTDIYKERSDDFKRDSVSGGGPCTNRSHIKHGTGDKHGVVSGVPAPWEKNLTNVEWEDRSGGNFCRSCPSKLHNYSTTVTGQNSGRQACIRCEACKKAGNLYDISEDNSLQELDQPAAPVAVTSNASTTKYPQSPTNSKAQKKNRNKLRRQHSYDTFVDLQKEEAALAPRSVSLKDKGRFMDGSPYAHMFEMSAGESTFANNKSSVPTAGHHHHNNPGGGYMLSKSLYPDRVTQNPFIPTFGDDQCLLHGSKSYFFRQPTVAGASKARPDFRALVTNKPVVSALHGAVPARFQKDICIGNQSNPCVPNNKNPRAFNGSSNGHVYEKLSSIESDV
Assay: Calcium flux (FLIPR) assay on cloned human NR1/GluN2B ion channels expressed in mammalian cells (standard and HTS variants)
Conditions: cells expressing human GluN1/GluN2B, glutamate and glycine co-agonists
recordedMetric: IC50 (nM)
Write it as a number; the unit nM goes unstated.

The examples below pair each entry with its known result.
FC(F)(F)c1cccc(-c2cnc3cnn(Cc4ccc(C(F)(F)F)nc4)c3c2)c1 [Example 174]	11900
FC(F)(F)c1cccc(-c2cnc3cnn(Cc4ccnnc4)c3c2)c1 [Example 254]	548
CC(F)(F)c1cc(-c2cnc3cnn(Cc4cncc(C#N)c4)c3c2)ccc1F [Example 219]	158

Using the record for Cc1c(F)ccc(-c2cnc3cnn(Cc4ccc(F)nc4)c3c2)c1F [Example 248] , state its measured IC50.
62

====

Molecular target: human GluN1/GluN2B NMDA receptors (Homo sapiens, UniProt Q13224)
Assay: Calcium flux (FLIPR) assay on cloned human NR1/GluN2B ion channels expressed in mammalian cells (standard and HTS variants)
Conditions: cells expressing human GluN1/GluN2B, glutamate and glycine co-agonists
Could you mark each record MET if its IC50 falls strictly under 100 nM, and NOT MET if it equals or exceeds it?

Reference set (3 entries):
Cc1ncc(Cn2ncc3ncc(-c4ccc(F)c(C)c4)cc32)o1 [Example 48]	NOT MET
Cc1cc(Cn2ncc3ncc(-c4ccc(F)cc4)cc32)no1 [Example 43]	NOT MET
N#Cc1cncc(Cn2ncc3ncc(-c4cccc(C(F)F)c4)cc32)c1 [Example 157]	MET

I wonder whether Cc1ncc(Cn2ncc3ncc(-c4ccc(F)c(C(F)F)c4)cc32)o1 [Example 54] has IC50 below 100 nM. Can you tell?
NOT MET

I wonder whether FC(F)Oc1cc(-c2cnc3cnn(Cc4cccnc4)c3c2)ccc1Cl [Example 238] has IC50 below 100 nM. Can you tell?
NOT MET

I wonder whether Fc1ccc(-c2cnc3cnn(Cc4cccnn4)c3c2)cc1OC(F)F [Example 263] has IC50 below 100 nM. Can you tell?
NOT MET
